- assayed target: T1, NOD mouse SIRP-α D1 domain (mouse (NOD strain))
- T1 chain: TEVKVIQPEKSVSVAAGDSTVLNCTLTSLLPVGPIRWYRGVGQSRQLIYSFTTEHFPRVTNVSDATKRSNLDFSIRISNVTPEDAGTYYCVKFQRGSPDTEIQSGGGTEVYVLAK
- protocol: SPR, ProteOn, antibody on chip
- Description: All experiments were performed at 25° C. using a SPR-based ProteOn XPR36 biosensor (BioRad, Inc, Hercules, Calif.) equipped with GLC or NLC sensor chips. […] For the method using GLC chip, the analytes were injected and flowed over anti-SIRPα antibodies immobilized (˜1000 RUs) on GLC chips using Proteon™ Amine Coupling Kit. […] Association times were monitored for 90 s at 100 μL/min, and dissociation times were monitored for 1200 s. […]
readout type: kon (M⁻¹ s⁻¹)
A number alone suffices; assume M⁻¹ s⁻¹.

Some binders with known kon results, for comparison:
binder	kon, M⁻¹ s⁻¹
AB25c (antibody, mouse IgG2a, V domains shown, Full-length mouse IgG2a) VH: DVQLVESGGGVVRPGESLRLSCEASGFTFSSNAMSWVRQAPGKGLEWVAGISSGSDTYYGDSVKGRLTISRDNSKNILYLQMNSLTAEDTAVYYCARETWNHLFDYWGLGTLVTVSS VL: ALTQPASVSANPGETVEITCSGGSYSSYYYAWYQQKSPGSAPVTLIYSDDKRPSNIPSRFSGSASGSTATLTITGVRAEDEAVYFCGGYDQSSYTNPFGAGTTLTVL	366000
AB27c (antibody, mouse IgG2a, V domains shown, Full-length mouse IgG2a) VH: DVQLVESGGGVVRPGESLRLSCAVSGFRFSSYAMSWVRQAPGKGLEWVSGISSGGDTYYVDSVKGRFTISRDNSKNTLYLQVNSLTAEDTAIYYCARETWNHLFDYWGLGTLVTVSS VL: ALTQPASVSADLGETVKITCSGGDSSSHYYGWYQQKSPGSAPVTVIYSDDERPSDIPSRFSGSASGSTATLTITGVRVEDEAIYYCGAYDGSTYANTFGAGTTLTVL	296000
AB3c (antibody, mouse IgG2a, V domains shown, Full-length mouse IgG2a) VH: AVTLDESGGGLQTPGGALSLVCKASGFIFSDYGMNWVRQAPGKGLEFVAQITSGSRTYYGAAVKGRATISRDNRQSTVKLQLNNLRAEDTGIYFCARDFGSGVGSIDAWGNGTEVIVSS VL: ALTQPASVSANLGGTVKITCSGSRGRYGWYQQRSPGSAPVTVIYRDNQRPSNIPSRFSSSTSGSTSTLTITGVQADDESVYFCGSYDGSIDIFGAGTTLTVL	999000

Next, consider the following binder.
// query Endpoint output: kon of AB66c (antibody, mouse IgG2a, V domains shown, Full-length mouse IgG2a) VH: DVQLVESGGGVVRPGESLRLSCAASGFTFSSYAMSWVRQAPGKGLEWLAGISAGGSDTYYIDSVKGRFTISRDNPKNSLYLQMSSLTAEDTAVYYCARETWNHLFDYWGLGTLVTVSS VL: ALTQPASVSANPGETVKITCSGGDYYSTYYAWYQQKSPGSAPVTVIHSDDKRPSDIPSRFSGSASGSAATLIITGVRVEDEAVYYCGGYDGRTYINTFGAGTTLTVL . Value?
// result 412000
